target: panel of 203 kinases (Homo sapiens, UniProt P06239); construct: purchased DiscoverX (KINOMEscan); experiment: KINOMEscan competitive binding, whole panel; conditions: 10 µM, n=1; kinase LCK; read-out: Percent inhibition LCK
Sequence (P06239 whole entry): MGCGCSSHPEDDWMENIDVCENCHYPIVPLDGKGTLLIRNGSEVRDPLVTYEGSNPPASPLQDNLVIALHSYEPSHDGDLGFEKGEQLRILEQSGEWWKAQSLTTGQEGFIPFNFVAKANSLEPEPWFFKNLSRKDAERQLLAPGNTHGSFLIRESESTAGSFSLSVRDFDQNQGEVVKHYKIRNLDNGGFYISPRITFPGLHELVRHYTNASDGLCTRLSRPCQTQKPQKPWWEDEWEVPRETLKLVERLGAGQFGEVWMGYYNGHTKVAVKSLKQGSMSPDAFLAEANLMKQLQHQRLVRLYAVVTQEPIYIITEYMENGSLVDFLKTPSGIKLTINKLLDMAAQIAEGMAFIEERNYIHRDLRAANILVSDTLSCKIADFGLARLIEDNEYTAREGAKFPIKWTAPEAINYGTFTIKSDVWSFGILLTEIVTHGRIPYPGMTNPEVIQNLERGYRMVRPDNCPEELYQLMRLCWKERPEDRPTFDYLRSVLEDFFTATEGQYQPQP
The entries below are paired with their reported inhibition at 10 µM.

{"columns": ["structureSmilesString", "inhibition at 10 µM [%]"],
 "data": [
  ["Fc1cccc(COc2ccc(Nc3ncnc4c3CN(CCN3CCOCC3)CC4)cc2Cl)c1", 0],
  ["COc1cc(Nc2nccc(-c3sc(N)nc3-c3cccc(NC(=O)c4c(F)cccc4F)c3)n2)cc(OC)c1OC", 99.5],
  ["Cc1ccc(O)cc1N(C)c1ccnc(Nc2cccc(S(N)(=O)=O)c2)n1", 99.8],
  ["C[C@@H](Oc1cc(-c2cnc3ccccn23)sc1C(N)=O)c1ccccc1Cl", 0],
  ["CN1CCN(c2ccc(Nc3nccc(-c4cnn5ncccc45)n3)cc2C#N)CC1", 97.6],
  ["Nc1ncc2c(-c3ccncc3)c[nH]c2n1", 0],
  ["c1ccc(COc2cccc(-c3ccnc4[nH]ccc34)c2)cc1", 0],
  ["COc1ccc(Nc2nccc(-c3cnn4ncccc34)n2)cc1", 0],
  ["Cc1ccc(O)cc1Nc1ccnc(Nc2cccc(C(N)=O)c2)n1", 99.6],
  ["Clc1ccc(Nc2ncc(-c3ccccc3)s2)cc1", 0]
]}

====

target: PAK3 (Homo sapiens); construct: purchased DiscoverX (KINOMEscan); assay: KINOMEscan competitive binding; details: n=1, read-out: Percent inhibition, PAK3
Sequence (O75914 whole entry): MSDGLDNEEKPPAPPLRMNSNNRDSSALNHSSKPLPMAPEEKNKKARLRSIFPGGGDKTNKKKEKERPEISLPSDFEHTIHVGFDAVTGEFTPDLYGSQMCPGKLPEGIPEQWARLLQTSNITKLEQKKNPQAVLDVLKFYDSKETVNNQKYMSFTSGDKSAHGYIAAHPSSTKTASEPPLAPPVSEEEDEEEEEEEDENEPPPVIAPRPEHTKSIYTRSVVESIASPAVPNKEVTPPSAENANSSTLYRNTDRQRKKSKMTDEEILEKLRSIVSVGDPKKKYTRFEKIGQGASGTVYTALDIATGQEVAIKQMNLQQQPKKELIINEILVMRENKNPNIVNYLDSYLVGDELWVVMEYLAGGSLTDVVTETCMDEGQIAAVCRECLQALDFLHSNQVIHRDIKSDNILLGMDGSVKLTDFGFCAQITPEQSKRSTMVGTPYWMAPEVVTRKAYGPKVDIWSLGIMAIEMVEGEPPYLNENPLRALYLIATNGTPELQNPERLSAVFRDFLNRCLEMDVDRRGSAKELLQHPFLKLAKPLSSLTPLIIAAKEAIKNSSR
valueType: inhibition at 10 µM (%)

{"columns": ["compound", "studySystem", "quantitativeReadout"],
 "data": [
  ["Clc1ccc(Nc2ncc(-c3ccccc3)s2)cc1 [Compound 10]", "PAK3 (Homo sapiens)", 0],
  ["COc1ccc(Nc2nccc(-c3cnn4ncccc34)n2)cc1 [Compound 2]", "PAK3 (Homo sapiens)", 0],
  ["CN1CCN(c2ccc(Nc3nccc(-c4cnn5ncccc45)n3)cc2C#N)CC1 [Compound 1]", "PAK3 (Homo sapiens)", 85.3],
  ["C[C@@H](Oc1cc(-c2cnc3ccccn23)sc1C(N)=O)c1ccccc1Cl [Compound 8]", "PAK3 (Homo sapiens)", 0],
  ["COc1cc(Nc2nccc(-c3sc(N)nc3-c3cccc(NC(=O)c4c(F)cccc4F)c3)n2)cc(OC)c1OC [Compound 7]", "PAK3 (Homo sapiens)", 94.9],
  ["Nc1ncc2c(-c3ccncc3)c[nH]c2n1 [Compound 11]", "PAK3 (Homo sapiens)", 0],
  ["Fc1cccc(COc2ccc(Nc3ncnc4c3CN(CCN3CCOCC3)CC4)cc2Cl)c1 [Compound 6]", "PAK3 (Homo sapiens)", 0],
  ["Cc1ccc(O)cc1N(C)c1ccnc(Nc2cccc(S(N)(=O)=O)c2)n1 [Compound 4]", "PAK3 (Homo sapiens)", 0],
  ["Cc1ccc(O)cc1Nc1ccnc(Nc2cccc(C(N)=O)c2)n1 [Compound 3]", "PAK3 (Homo sapiens)", 0],
  ["c1ccc(COc2cccc(-c3ccnc4[nH]ccc34)c2)cc1 [Compound 9]", "PAK3 (Homo sapiens)", 0]
]}

====

molecular target: YANK3 (Homo sapiens); construct: purchased DiscoverX (KINOMEscan); assay: KINOMEscan competitive binding; details: n=1, read-out: Percent inhibition, YANK3
Sequence (Q86UX6 whole entry): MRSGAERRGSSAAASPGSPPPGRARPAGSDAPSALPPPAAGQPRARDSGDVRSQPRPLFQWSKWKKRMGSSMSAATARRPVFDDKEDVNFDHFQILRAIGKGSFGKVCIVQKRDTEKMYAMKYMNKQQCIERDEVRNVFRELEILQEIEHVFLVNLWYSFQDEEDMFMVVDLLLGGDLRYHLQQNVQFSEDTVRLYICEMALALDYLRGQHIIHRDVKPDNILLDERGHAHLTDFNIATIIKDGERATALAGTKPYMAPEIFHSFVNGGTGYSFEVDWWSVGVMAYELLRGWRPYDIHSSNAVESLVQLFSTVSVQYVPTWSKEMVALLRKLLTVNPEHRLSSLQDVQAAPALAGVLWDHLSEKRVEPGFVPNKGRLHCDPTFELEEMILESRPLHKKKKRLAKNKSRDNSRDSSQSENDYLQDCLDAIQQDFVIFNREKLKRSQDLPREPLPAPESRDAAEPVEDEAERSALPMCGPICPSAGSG
The entries below are paired with their reported inhibition at 10 µM.

{"columns": ["structureSmilesString", "inhibition at 10 µM"],
 "data": [
  ["CN1CCN(c2ccc(Nc3nccc(-c4cnn5ncccc45)n3)cc2C#N)CC1", "0%"],
  ["c1ccc(COc2cccc(-c3ccnc4[nH]ccc34)c2)cc1", "0%"],
  ["Clc1ccc(Nc2ncc(-c3ccccc3)s2)cc1", "0%"],
  ["COc1cc(Nc2nccc(-c3sc(N)nc3-c3cccc(NC(=O)c4c(F)cccc4F)c3)n2)cc(OC)c1OC", "94.8%"],
  ["Cc1ccc(O)cc1Nc1ccnc(Nc2cccc(C(N)=O)c2)n1", "0%"]
]}
